# pKd values compiled below
- TESTED TARGET: T1, MICB005.His (human MICB*005 alpha 3 domain, His tagged) (human)
- T1 construct: also called huMICB*005 alpha 3-his
- T1 chain: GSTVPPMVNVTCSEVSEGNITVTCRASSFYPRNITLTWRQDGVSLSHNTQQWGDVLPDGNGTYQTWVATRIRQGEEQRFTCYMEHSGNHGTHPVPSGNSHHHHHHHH
- TEST METHOD NOTES: SPR, antibody captured;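 also: SPR with antibody held by surface-bound anti-Fc while His-tagged alpha three domains flow over, Kd derived by fitting a one-to-one binding model to sensograms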
Just the number, please; pKd means minus log10 of the concentration in mol/L.

Recorded results for 2 binders are shown here.
BINDER: 1D5 (antibody, V domains shown, Mouse variable domains; constant regions differ by assay (human IgG1 or mouse IgG2a); also called anti-MIC 1D5) VH: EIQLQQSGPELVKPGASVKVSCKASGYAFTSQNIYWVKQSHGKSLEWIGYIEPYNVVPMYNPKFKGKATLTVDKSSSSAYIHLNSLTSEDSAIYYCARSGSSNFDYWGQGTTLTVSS VL: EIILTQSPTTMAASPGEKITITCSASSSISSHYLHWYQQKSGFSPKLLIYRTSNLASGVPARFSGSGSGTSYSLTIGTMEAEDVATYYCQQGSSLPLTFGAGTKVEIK
ASSAY VALUE: 8.96
--
BINDER: 6E1.1.12 (antibody, V domains shown, Mouse hybridoma antibody; constant regions differ by assay) VH: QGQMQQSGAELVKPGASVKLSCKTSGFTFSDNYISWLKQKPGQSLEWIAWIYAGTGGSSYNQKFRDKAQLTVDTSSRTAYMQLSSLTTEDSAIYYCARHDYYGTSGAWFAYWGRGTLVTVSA VL: DVLMTQTPLSLPVSLGDQASISCRSSQHIVHSNENTYLEWYLQKPGQSPKLLIYKVSNRFSGVPDRFSGSGSGTDFTLKISRVEAEDLGVYYCFQGSHVPWTFGGGTKVEIK
ASSAY VALUE: 8.00

# evaluate next
Ask: What value of pKd has been reported for the following binder? 12H10 (antibody, V domains shown, Mouse variable domains; constant regions differ by assay) VH: DVQLQESGPGLVKPSQPLSLTCTVTGYSITSNYAWNWIRQFPGDKLEWMGYISSSGITKSNPSLKSRISITRDTSKNQFFLQLNSLTTEDTATYYCSRWSNWSFDVWGAGTTVTVSS VL: DIQMTQTPSSLSVSLGDRVTINCRASQDIHNYFNWYQQKPDGTIKLLIYYTSRFHSGVPSRFSGSGSGTDYSLTISNLEEEDIATYFCQQGNSLPPTFGGGTKLEIK
Result: 7.97
